# measured-on: GCase (Homo sapiens)
# protocol-text: Inhibitory activity towards human GCase in leukocyte extracts from healthy donors
# recorded-conditions: GCase from leukocytes of healthy donors; 4-methylumbelliferyl-β-D-glucoside 3.33 mM
# Protocol: The compounds were screened in extracts from a pool of human leucocytes isolated from healthy donors (1 mM inhibitor concentration, 37 °C and optimal pH conditions, see Experimental Section). […] Enzyme activity was measured in a flat‐bottomed 96‐well plate. […] leukocytes isolated from healthy donors (controls). […] Enzyme activity was measured in a flat - […] The corresponding calculated IC50 determination: The IC50 values of inhibitors against GCase were determined by measuring the initial […]
reported-metric: IC50 (µM)

O=C(CCCCC(=O)NC(COCc1cn(CCCCCCCCCN2C[C@@H](O)C(O)[C@H](O)C2)nn1)(COCc1cn(CCCCCCCCCN2C[C@@H](O)C(O)[C@H](O)C2)nn1)COCc1cn(CCCCCCCCCN2C[C@@H](O)C(O)[C@H](O)C2)nn1)NC(COCc1cn(CCCCCCCCCN2C[C@@H](O)C(O)[C@H](O)C2)nn1)(COCc1cn(CCCCCCCCCN2C[C@@H](O)C(O)[C@H](O)C2)nn1)COCc1cn(CCCCCCCCCN2C[C@@H](O)C(O)[C@H](O)C2)nn1 [Compound 15] | 11
OC1[C@H](O)CN(CCCCCCCCCn2cc(COC[C@@H](OCc3cn(CCCCCCCCCN4C[C@@H](O)C(O)[C@H](O)C4)nn3)[C@@H](OCc3cn(CCCCCCCCCN4C[C@@H](O)C(O)[C@H](O)C4)nn3)[C@H](OCc3cn(CCCCCCCCCN4C[C@@H](O)C(O)[C@H](O)C4)nn3)[C@@H](COCc3cn(CCCCCCCCCN4C[C@@H](O)C(O)[C@H](O)C4)nn3)OCc3cn(CCCCCCCCCN4C[C@@H](O)C(O)[C@H](O)C4)nn3)nn2)C[C@H]1O [Compound 14] | 6
OC1[C@H](O)CN(CCCCCCCCCn2cc(COCC(COCc3cn(CCCCCCCCCN4C[C@@H](O)C(O)[C@H](O)C4)nn3)(COCc3cn(CCCCCCCCCN4C[C@@H](O)C(O)[C@H](O)C4)nn3)COCc3cn(CCCCCCCCCN4C[C@@H](O)C(O)[C@H](O)C4)nn3)nn2)C[C@H]1O [Compound 13] | 9

[a] NC(COCc1cn(CCCCCCCCCN2C[C@@H](O)C(O)[C@H](O)C2)nn1)(COCc1cn(CCCCCCCCCN2C[C@@H](O)C(O)[C@H](O)C2)nn1)COCc1cn(CCCCCCCCCN2C[C@@H](O)C(O)[C@H](O)C2)nn1 [Compound 11]
[b] OCc1cn(CCCCCCCCCN2C[C@@H](O)C(O)[C@H](O)C2)nn1 [Compound 18]
Endpoint returns whichever of a and b has the numerically higher IC50. Output the label that corresponds to your choice. b

====

# measured-on: GCase (Homo sapiens, UniProt P04062)
# Sequence (P04062 40-536): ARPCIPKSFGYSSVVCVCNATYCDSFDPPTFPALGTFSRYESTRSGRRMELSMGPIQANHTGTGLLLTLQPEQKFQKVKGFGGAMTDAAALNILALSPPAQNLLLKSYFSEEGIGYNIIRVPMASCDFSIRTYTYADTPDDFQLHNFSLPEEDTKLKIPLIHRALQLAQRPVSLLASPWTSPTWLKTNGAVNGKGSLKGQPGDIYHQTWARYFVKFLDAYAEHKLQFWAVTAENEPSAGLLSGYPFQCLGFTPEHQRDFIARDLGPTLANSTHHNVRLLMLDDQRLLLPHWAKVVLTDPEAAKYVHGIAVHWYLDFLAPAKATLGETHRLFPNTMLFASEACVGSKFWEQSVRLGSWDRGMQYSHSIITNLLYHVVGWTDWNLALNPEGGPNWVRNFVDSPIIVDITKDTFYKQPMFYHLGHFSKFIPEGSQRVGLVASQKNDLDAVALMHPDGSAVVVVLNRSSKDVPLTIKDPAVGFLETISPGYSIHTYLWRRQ
# protocol-text: Inhibitory activity towards human GCase in leukocyte extracts from healthy donors
# Type: biochemical
# Parameters: screened towards GCase from leukocytes isolated from healthy donors (controls); Isolated leukocytes were disrupted by sonication; from tissue; host or cells: pooled human leukocytes from healthy donors, sonicated homogenate
# recorded-conditions: relative potency divided by number of binding units n
reported-metric: rp/n (multivalent effect)

Solved cases below.
O=C(CCCCC(=O)NC(COCc1cn(CCCCCCCCCN2C[C@@H](O)C(O)[C@H](O)C2)nn1)(COCc1cn(CCCCCCCCCN2C[C@@H](O)C(O)[C@H](O)C2)nn1)COCc1cn(CCCCCCCCCN2C[C@@H](O)C(O)[C@H](O)C2)nn1)NC(COCc1cn(CCCCCCCCCN2C[C@@H](O)C(O)[C@H](O)C2)nn1)(COCc1cn(CCCCCCCCCN2C[C@@H](O)C(O)[C@H](O)C2)nn1)COCc1cn(CCCCCCCCCN2C[C@@H](O)C(O)[C@H](O)C2)nn1 | 8
OC1[C@H](O)CN(CCCCCCCCCn2cc(COC[C@@H](OCc3cn(CCCCCCCCCN4C[C@@H](O)C(O)[C@H](O)C4)nn3)[C@@H](OCc3cn(CCCCCCCCCN4C[C@@H](O)C(O)[C@H](O)C4)nn3)[C@H](OCc3cn(CCCCCCCCCN4C[C@@H](O)C(O)[C@H](O)C4)nn3)[C@@H](COCc3cn(CCCCCCCCCN4C[C@@H](O)C(O)[C@H](O)C4)nn3)OCc3cn(CCCCCCCCCN4C[C@@H](O)C(O)[C@H](O)C4)nn3)nn2)C[C@H]1O | 14

[I] NC(COCc1cn(CCCCCCCCCN2C[C@@H](O)C(O)[C@H](O)C2)nn1)(COCc1cn(CCCCCCCCCN2C[C@@H](O)C(O)[C@H](O)C2)nn1)COCc1cn(CCCCCCCCCN2C[C@@H](O)C(O)[C@H](O)C2)nn1
[II] OC1[C@H](O)CN(CCCCCCCCCn2cc(COCC(COCc3cn(CCCCCCCCCN4C[C@@H](O)C(O)[C@H](O)C4)nn3)(COCc3cn(CCCCCCCCCN4C[C@@H](O)C(O)[C@H](O)C4)nn3)COCc3cn(CCCCCCCCCN4C[C@@H](O)C(O)[C@H](O)C4)nn3)nn2)C[C@H]1O
Which of these two has the smaller recorded rp/n (multivalent effect): I or II ? Output the label that corresponds to your choice. I
(I: 6, II: 14)
